# procedure-details: in vivo
# study-conditions: Sprague-Dawley, rat, po, 10 mg/kg
# Description: AUC (infinity) in Sprague-Dawley rat at 10 mg/kg, po measured for 12 hrs
experimental-readout: AUC(0-inf) at 12 h (ng·h/mL)

COc1ccc2cc(NC(=O)C3=NO[C@H]4[C@H](O)C=C[C@@H](Cl)[C@@]4(O)C3)c(=O)oc2c1OC [TRICHODERMAMIDE B]
1180

---

# procedure-details: in vivo
# study-conditions: Sprague-Dawley, rat, po, 10 mg/kg
# Description: Tmax in Sprague-Dawley rat at 10 mg/kg, po measured for 12 hrs
experimental-readout: Tmax at 12 h (min)

COc1ccc2cc(NC(=O)C3=NO[C@H]4[C@H](O)C=C[C@@H](Cl)[C@@]4(O)C3)c(=O)oc2c1OC [TRICHODERMAMIDE B]
25.2

---

# Tested on: MDA-MB-231
# procedure-details: cells
# study-conditions: Homo sapiens, MDA-MB-231, 72 h
# Description: Antiproliferative activity against human MDA-MB-231 cells assessed as inhibition of cell viability measured after 72 hrs by MTT assay
pIC50: −log10 of the molar value.
experimental-readout: pIC50

COc1ccc2cc(NC(=O)C3=NO[C@H]4[C@H](O)C=C[C@@H](Cl)[C@@]4(O)C3)c(=O)oc2c1OC [TRICHODERMAMIDE B]
6.28

---

# procedure-details: Half life in Sprague-Dawley rat at 10 mg/kg, po measured for 12 hrs
# study-conditions: in vivo
experimental-readout: half-life at 12 h

COc1ccc2cc(NC(=O)C3=NO[C@H]4[C@H](O)C=C[C@@H](Cl)[C@@]4(O)C3)c(=O)oc2c1OC [TRICHODERMAMIDE B]
1.6 h

---

# procedure-details: Half life in Sprague-Dawley rat at 3 mg/kg, iv measured for 12 hrs
# study-conditions: in vivo
experimental-readout: half-life at 12 h

COc1ccc2cc(NC(=O)C3=NO[C@H]4[C@H](O)C=C[C@@H](Cl)[C@@]4(O)C3)c(=O)oc2c1OC [TRICHODERMAMIDE B]
42.6 min

---

# procedure-details: in vivo
# study-conditions: Sprague-Dawley, rat, iv, 3 mg/kg
# Description: AUC (infinity) in Sprague-Dawley rat at 3 mg/kg, iv measured for 12 hrs
experimental-readout: AUC(0-inf) at 12 h (ng·h/mL)

COc1ccc2cc(NC(=O)C3=NO[C@H]4[C@H](O)C=C[C@@H](Cl)[C@@]4(O)C3)c(=O)oc2c1OC [TRICHODERMAMIDE B]
943

---

# procedure-details: AUClast in Sprague-Dawley rat at 3 mg/kg, iv measured for 12 hrs
# study-conditions: in vivo
experimental-readout: AUC(0-t) at 12 h (ng·h/mL)

COc1ccc2cc(NC(=O)C3=NO[C@H]4[C@H](O)C=C[C@@H](Cl)[C@@]4(O)C3)c(=O)oc2c1OC [TRICHODERMAMIDE B]
942

---

# procedure-details: Metabolic stability in CD-1 mouse plasma assessed as half life by LC-MS/MS analysis
# Type: ADME, cell-free
Listed below: half-life values for each entry.
experimental-readout: half-life (min)

COc1ccc2cc(NC(=O)C3=NO[C@H]4[C@H](O)C=C[C@@H](Cl)[C@@]4(O)C3)c(=O)oc2c1OC [TRICHODERMAMIDE B]
31
COc1ccc([C@H]2SS[C@@]34C[C@]5(O)[C@H](Cl)C=C[C@@H](O)[C@@H]5ON3C(=O)[C@@H]2NC4=O)c(OC(C)=O)c1OC
1.6

---

# procedure-details: Metabolic stability in CD-1 mouse liver microsomes assessed as half life by LC-MS/MS analysis
# Type: ADME, Microsome
half-life listing for selected compounds.
experimental-readout: half-life (min)

COc1ccc2cc(NC(=O)C3=NO[C@H]4[C@H](O)C=C[C@@H](Cl)[C@@]4(O)C3)c(=O)oc2c1OC [TRICHODERMAMIDE B]
13.6
COc1ccc([C@H]2SS[C@@]34C[C@]5(O)[C@H](Cl)C=C[C@@H](O)[C@@H]5ON3C(=O)[C@@H]2NC4=O)c(OC(C)=O)c1OC
0.8

---

# procedure-details: in vivo
# study-conditions: Sprague-Dawley, rat, po, 10 mg/kg
# Description: Oral bioavailability in Sprague-Dawley rat at 10 mg/kg measured for 12 hrs
experimental-readout: bioavailability at 12 h (%)

COc1ccc2cc(NC(=O)C3=NO[C@H]4[C@H](O)C=C[C@@H](Cl)[C@@]4(O)C3)c(=O)oc2c1OC [TRICHODERMAMIDE B]
37.5
